Sourced from patent US20230278972A1

Exercise: for every item that follows, state its recorded Pigweed plant response rating.
system: pigweed (Amaranthus retroflexus); assay: Test A preemergence, pigweed; type: in vivo; details: 500 g ai/ha, visual injury on 0 to 100 scale (0 no effect, 100 complete control), approximately 10 days
Give bare numbers.

// known answers, use as guide
[[record]]
molecule = "Cc1cc(C)c(C(=O)N2CCC(S(C)(=O)=O)CC2)cc1NS(=O)(=O)C(F)(F)F"
reading = 90

[[record]]
molecule = "Cc1cc(C)c(C2=NOC3(CCC3)C2)cc1NS(=O)(=O)C(F)(F)F"
reading = 100

[[record]]
molecule = "Cc1cc(F)c(C(=O)N2CC(C)OC(C)C2)cc1NS(=O)(=O)C(F)(F)F (centres unmarked)"
reading = 80

[[record]]
molecule = "COC1CCN(C(=O)c2cc(NS(=O)(=O)C(F)(F)F)c(Cl)cc2C)CC1"
reading = 100

[[record]]
molecule = "Cc1cc(Cl)c(C(=O)N2CCCCC2)cc1N(S(=O)(=O)C(F)(F)F)S(=O)(=O)C(F)(F)F"
reading = 100


Would you mind listing Pigweed plant response rating for each of the following molecules?
1. Cc1cc(C)c(C2=NOC(C)(CCl)C2)cc1NS(=O)(=O)C(F)(F)F (centres unmarked)
2. Cc1cc(Cl)c(C(=O)N(C)C)cc1NS(=O)(=O)C(F)(F)F

RESULT:
100
100

Could you report Pigweed plant response rating for every entry in the following list?
1. Cc1cc(C)c(N(S(=O)(=O)C(F)(F)F)S(=O)(=O)C(F)(F)F)cc1N1CCC2(CCCC2)C1=O
2. Cc1cc(C)c(N(S(=O)(=O)C(F)(F)F)S(=O)(=O)C(F)(F)F)cc1C(=O)N1CCCOCC1
3. Cc1cc(Cl)c(C(=O)N2CCCCC2)cc1NS(=O)(=O)C(F)(F)F
4. Cc1cc(F)c(C(=O)N2CC(C)OC(C)C2)cc1N(S(=O)(=O)C(F)(F)F)S(=O)(=O)C(F)(F)F (centres unmarked)

RESULT:
[100, 100, 100, 80]

====

test system: pigweed (Amaranthus retroflexus); assay: Test A postemergence, pigweed; type: in vivo; conditions: Postemergence, 125 g ai/ha; 0 to 100 scale (0 no effect, 100 complete control)
Given measured Plant response rating, Pigweed, output class 1 if it is greater than or equal to 60 and class 0 if not.

Worked cases, answers included:
[[record]]
compound = "Cc1cc(Cl)c(C(=O)N(C)C)cc1NS(=O)(=O)C(F)(F)F [Compound 251]"
measured_target = "pigweed (Amaranthus retroflexus)"
label_value = "class 1"

[[record]]
compound = "CC(=O)OCN(c1cc(C2=NOC3(CCCC3)C2)c(C)cc1C)S(=O)(=O)C(F)(F)F [Compound 218]"
measured_target = "pigweed (Amaranthus retroflexus)"
label_value = "class 0"

[[record]]
compound = "Cc1cc(Cl)c(NS(=O)(=O)C(F)(F)F)cc1C(=O)N1CCOCC1C (stereo not drawn) [Compound 245]"
measured_target = "pigweed (Amaranthus retroflexus)"
label_value = "class 1"

[[record]]
compound = "Cc1cc(C)c(C(=O)N2CCCOCC2)cc1NS(=O)(=O)C(F)(F)F [Compound 160]"
measured_target = "pigweed (Amaranthus retroflexus)"
label_value = "class 1"

[[record]]
compound = "Cc1cc(Cl)c(C(=O)N2CCOCC2)cc1N(S(=O)(=O)C(F)(F)F)S(=O)(=O)C(F)(F)F [Compound 250]"
measured_target = "pigweed (Amaranthus retroflexus)"
label_value = "class 1"

[[record]]
compound = "C#CCN(C)C(=O)c1cc(NS(=O)(=O)C(F)(F)F)c(C)c(F)c1C [Compound 179]"
measured_target = "pigweed (Amaranthus retroflexus)"
label_value = "class 1"


QUERY: Confirm if Plant response rating, Pigweed reported for the compound Cc1cc(Cl)c(C2=NOC3(CCCC3)C2)cc1N(S(=O)(=O)C(F)(F)F)S(=O)(=O)C(F)(F)F [Compound 186] is 60 or above.
RESULT: class 0

QUERY: Does the reported Plant response rating, Pigweed for Cc1cc(C)c(C2=NOC3(CCC4(CC3)OCCO4)C2)cc1NS(=O)(=O)C(F)(F)F [Compound 135] fall at or above the 60 mark?
RESULT: class 1

QUERY: Determine whether measured Plant response rating, Pigweed meets or exceeds 60 for Cc1cc(C(F)(F)F)c(NS(=O)(=O)C(F)(F)F)cc1C(=O)N(C)C [Compound 132]
RESULT: class 1

QUERY: Record COC1CCCN(C(=O)c2cc(NS(=O)(=O)C(F)(F)F)c(C)cc2C)CC1 (stereo not drawn) [Compound 137] ; criterion: Plant response rating, Pigweed no lower than 60. Met?
RESULT: class 0

QUERY: Could you verify whether the entry CCC(C)C(=O)OCN(c1cc(C2=NOC3(CCCC3)C2)c(C)cc1C)S(=O)(=O)C(F)(F)F (stereo not drawn) [Compound 151] shows Plant response rating, Pigweed of no less than 60?
RESULT: class 0

QUERY: Check this compound for Plant response rating, Pigweed at or above 60: Cc1cc(F)c(C(=O)N2CCCCC2)cc1N(S(=O)(=O)C(F)(F)F)S(=O)(=O)C(F)(F)F [Compound 212]
RESULT: class 0

QUERY: Item Cc1cc(Cl)c(N(S(=O)(=O)C(F)(F)F)S(=O)(=O)C(F)(F)F)cc1C1=NOC2(CCCCC2)C1 [Compound 217] with Plant response rating, Pigweed of 60 or above?
RESULT: class 0

====

For each of the molecules below, state its Plant response rating, Blackgrass.
system: blackgrass (Alopecurus myosuroides); assay: Test A postemergence, blackgrass; format: in vivo; conditions: Postemergence, 500 g ai/ha; visual injury, 0 to 100 scale (0 no effect, 100 complete control), approx. 10 days
Give bare numbers.

Would you please look over these solved cases?
[[record]]
smiles_repr = "Cc1cc(Cl)c(N(S(=O)(=O)C(F)(F)F)S(=O)(=O)C(F)(F)F)cc1-c1cn(C)c(=O)n(C)c1=O"
reading = 90

[[record]]
smiles_repr = "COc1cc(-c2cc(N(S(=O)(=O)C(F)(F)F)S(=O)(=O)C(F)(F)F)c(C)cc2C)c(=O)n(C)n1"
reading = 30

[[record]]
smiles_repr = "CCn1c(=O)c(-c2cc(NS(=O)(=O)C(F)(F)F)c(C)cc2C)cn(C)c1=O"
reading = 90

[[record]]
smiles_repr = "Cc1cc(Cl)c(NS(=O)(=O)C(F)(F)F)cc1C(=O)N1CCC(C#N)CC1"
reading = 30


Record Plant response rating, Blackgrass for all entries; do not skip any.
1. Cc1cc(C)c(N(S(C)(=O)=O)S(=O)(=O)C(F)(F)F)cc1-c1cc(C(C)C)nn(C)c1=O
2. CCc1cc(-c2cc(N(S(=O)(=O)C(F)(F)F)S(=O)(=O)C(F)(F)F)c(C)cc2C)c(=O)n(C)n1

RESULT:
0
30

For each of the molecules below, note its Plant response rating, Blackgrass.
1. Cc1cc(Cl)c(NS(=O)(=O)C(F)(F)F)cc1C(=O)N(C)C
2. CCn1cc(-c2cc(N(S(=O)(=O)C(F)(F)F)S(=O)(=O)C(F)(F)F)c(C)cc2C)c(=O)n(CC)c1=O
3. CCN(CC)C(=O)c1cc(NS(=O)(=O)C(F)(F)F)c(Cl)cc1C

RESULT:
[30, 90, 10]

====

test system: corn (Zea mays); assay: Test A postemergence, corn; type: in vivo; details: Postemergence, 500 g ai/ha; visual injury, 0 to 100 scale (0 no effect, 100 complete control), approx. 10 days
I'd be grateful if you could share measured Plant response rating, Corn for these entries.
Answers are plain numbers.

[[record]]
smiles_repr = "CCn1cc(-c2cc(N(S(=O)(=O)C(F)(F)F)S(=O)(=O)C(F)(F)F)c(C)cc2C)c(=O)n(C)c1=O"
reading = 40

[[record]]
smiles_repr = "CCn1c(=O)c(-c2cc(NS(=O)(=O)C(F)(F)F)c(C)cc2C)cn(C)c1=O"
reading = 80

[[record]]
smiles_repr = "Cc1cc(Cl)c(N(S(=O)(=O)C(F)(F)F)S(=O)(=O)C(F)(F)F)cc1-c1cn(C)c(=O)n(C)c1=O"
reading = 70


Now turn to the next compound.
# lookup: Cc1cc(C)c(N(S(=O)(=O)C(F)(F)F)S(=O)(=O)C(F)(F)F)cc1-c1cn(C)c(=O)n(C)c1=O on corn (Zea mays), Plant response rating, Corn = 60

====

Provide the recorded Plant response rating, Corn for the entries that follow.
test system: corn (Zea mays); assay: Test A postemergence, corn; assay type: in vivo; conditions: Postemergence, 125 g ai/ha; visual injury approx. 10 days; 0 to 100 scale (0 no effect, 100 complete control)

// worked examples, Plant response rating, Corn included
[[record]]
smiles_repr = "Cc1cc(C)c(C(=O)N2COC(C)(C)C2)cc1NS(=O)(=O)C(F)(F)F"
reading = 20

[[record]]
smiles_repr = "COCC1(COC)CC(c2cc(NS(=O)(=O)C(F)(F)F)c(C)cc2C)=NO1"
reading = 30

[[record]]
smiles_repr = "CCn1cc(-c2cc(N(S(=O)(=O)C(F)(F)F)S(=O)(=O)C(F)(F)F)c(C)cc2C)c(=O)n(CC)c1=O"
reading = 10

[[record]]
smiles_repr = "CCn1nccc(-c2cc(NS(=O)(=O)C(F)(F)F)c(C)cc2C)c1=O"
reading = 10

[[record]]
smiles_repr = "Cc1cc(Cl)c(NS(=O)(=O)C(F)(F)F)cc1C(=O)N(C)C"
reading = 20


Give Plant response rating, Corn for all compounds that follow.
1. Cc1cc(C(=O)N2CCOC(C)(C)C2)cc(NS(=O)(=O)C(F)(F)F)c1Cl
2. Cc1cc(C(F)(F)F)c(NS(=O)(=O)C(F)(F)F)cc1C(=O)N(C)C
3. Cc1c(NS(=O)(=O)C(F)(F)F)cc(C(=O)N2CCC3(CC2)OCCCO3)c(C)c1F

RESULT:
1. 30
2. 0
3. 10
